# testProtocol: protease stability score; higher = more stable; yeast display proteolysis, trypsin and chymotrypsin;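 also: relative to predicted unfolded state with 0 unfolded-like and 1 meaning tenfold more protease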
Item-by-item account of protease stability score
Answer with the value's number alone.

Answered cases to consult:
DEERDETRELLRRLQELLRTGDEEEIRKLADPHVRSDVNGREYHGRDWATHLIMRFDHLDIERIRIFDGRIETDFRVEIGDKTFQTRMHVRKIDGRWNIKEIKII: 1.55
SEDSEQALTIIEQLTKNLATGDEDTAEELVDPNVRINIGDKTIHGMHELSRFLLELRSEHRSHIRDVRVQGDKINVEGEDEIIIQVNGQEIRIRKHVHWIIDKIDGVWFVRSVNIH: 1.89

Now examine the next entry.
Which protease stability score value belongs to DDRKKEAQRILELFLKIWETGDEEELLKLLDPNVKLHIGDKNIHGMEEATRILTENVREIRTHIVHKRVHIQGDKVELEGELRIHVNGREESNRVHYELIVVNGKVKAIHVHLE ? 1.16

###

# testProtocol: protease stability score; higher = more stable; yeast display proteolysis, trypsin and chymotrypsin;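 also: relative to predicted unfolded state with 0 unfolded-like and 1 meaning tenfold more protease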
measuredAttribute: protease stability score
Answer with the value's number alone.

Answered cases to consult:
EEEEESVQRAMERILHALQTGDWHTLSRMADPHVKLLVNGVELHGMEKIEEFLKKLLEELGVDKIDVRLHDFHTFNGVVHVDVRSHFNGRTHREEWVLLKVNGRWSLKEVRTE: 1.44
DEHERLAEIALRLYVHDIRTGDEHRLRKLFDPHVRFVIGDKVYHGWEEMKWILEHIRRELGVKHIKDEDSRHVHLQGDKMYTELRLHVNQGDYETELEVFMVSVKVNGQWLTHSFELR: 1.21
SDEDHEAHRMMRLFFEAQRTGDEHLVRKLVDPDVRTFYGEKHMHGRRHHVEILLEIRIHRLTITELRVYGEKVRMDIRVDEQIGDKRREVRFELHLVVIDGVLKVVSIDME: 0.92
EEEDDVLHEFLREFIHFFSTGDFDHIIEMLDPNTQQHVGDKINIGREEWKHWLKFHLDRLGVDQVRVHVRRVRFFNGRVELNIELRQGDYVFDARILALKVDGRWLLESVEIK: 2.82

Which protease stability score value belongs to SESEEFAREFLEHMEKFLRTGNWEEMKRNADPNVLLRIGDKHLHGREEYEEWLRKFLEHMRIREVEVKDLKIVGDKIFLIIRIRIHFDGREDQLDTILVMQKVDGRWIVTEIRVR ? 1.21

Which protease stability score value belongs to SEDHLEARETVTEELRARQTGDERRLDELIDPNTRLEINGKEVHGMEQIIEETRRLGVDVVEIRLERHDRFNGVIHVRGRLHYNWNGKSIDHETELIVYKVDGQWIVHSIHVL ? 1.05

###

# testProtocol: protease stability score; higher = more stable; yeast display proteolysis, trypsin and chymotrypsin;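 also: relative to predicted unfolded state with 0 unfolded-like and 1 meaning tenfold more protease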
measuredAttribute: protease stability score
Answer with the value's number alone.

Answered cases to consult:
DEHEELMRTLAEIVLRIFLTGDWDSFSKLADPNYRIDWNGRHTHGMHLAERVLREIHRQIRIDNVILQDMRIQGNKVHNHGTIDGNINGVHDKVQTHVHLILVDGRLKEVEFRHH: -0.231
SEREEKIEHALRRLFEVILTGDERLANELLDPNVLLDVGDKKIHGREEVMRILHHWRIDKFEMHTHDIRLIGEKAHVDTISDRRVHVNGRTQDITERVHFVVLKVNGVWFIHSMHIH: 1.59
SEEEELMKKAMNTILESLKTGDFHTLENLVDPTARSDINGVILHGRELMHHEWERLLRELGVDVWEINEIHLRYVDGVVRIDIDGKVIIGDKSRTVHLRIIAHKIDGRWHIHSISFEVR: 1.83
NELHKEYRHMLHILRHIIETGNERALEENMDPNYRIEIGDKRIHGREKALEFWWRLNKRVDHLELHDEHINLFEGHVEIDGRLILKQGEYIEESKTTIFIVKVNGRWVLRSFRVE: 1.86

Now examine the next entry.
Which protease stability score value belongs to DEEERRDREWLHRMLHVHHTGDEEMFKRLADPHTLLRVDGKDVHGREEIAHFIRERGYRVEVHARHIEIINGRIDNETTVIVRINGRTIHEETHLHIRKINGKWILTHWHIE ? 0.654
